The measurements presented in this section are drawn from the supplement of paper PMC10065799.

phosphorylation enrichment values for the sequences below.
biological target: FGFR1 (UniProt P11362); experiment: phosphorylation enrichment, bacterial display (enrichment ratio); higher = better substrate or ligand; peptides without Tyr show the background;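 further: 11-residue human phosphosite peptides and single-mutation variants displayed on the E. coli surface, counted by deep sequencing, each peptide's frequency after selection divided by its frequency in the unselected input library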;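 further: frequency after pTyr selection over input frequency; kinase dosed for 20-30% of maximal phosphorylation in three min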
Sequence (P11362 whole entry, looked up): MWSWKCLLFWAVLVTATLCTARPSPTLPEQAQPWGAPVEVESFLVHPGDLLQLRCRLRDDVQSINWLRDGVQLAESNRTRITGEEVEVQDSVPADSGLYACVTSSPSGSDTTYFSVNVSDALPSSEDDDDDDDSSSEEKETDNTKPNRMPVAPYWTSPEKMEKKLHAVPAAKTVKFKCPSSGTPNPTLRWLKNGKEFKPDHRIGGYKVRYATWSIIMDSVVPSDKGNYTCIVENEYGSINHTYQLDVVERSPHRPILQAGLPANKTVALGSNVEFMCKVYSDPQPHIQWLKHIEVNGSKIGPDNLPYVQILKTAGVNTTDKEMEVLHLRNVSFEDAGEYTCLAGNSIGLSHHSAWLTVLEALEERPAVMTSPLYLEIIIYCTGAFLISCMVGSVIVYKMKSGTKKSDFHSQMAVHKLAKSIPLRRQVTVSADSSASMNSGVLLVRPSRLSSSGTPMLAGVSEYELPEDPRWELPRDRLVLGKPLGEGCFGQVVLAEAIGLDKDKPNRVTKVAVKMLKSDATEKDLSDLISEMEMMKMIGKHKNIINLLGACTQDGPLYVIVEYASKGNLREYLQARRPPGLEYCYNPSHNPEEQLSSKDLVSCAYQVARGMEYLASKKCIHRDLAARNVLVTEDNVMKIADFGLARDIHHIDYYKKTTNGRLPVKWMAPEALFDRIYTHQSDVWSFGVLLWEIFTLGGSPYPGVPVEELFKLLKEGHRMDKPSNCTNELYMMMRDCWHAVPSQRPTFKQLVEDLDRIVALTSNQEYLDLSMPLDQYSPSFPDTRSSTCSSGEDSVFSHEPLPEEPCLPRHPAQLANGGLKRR
The answer should be a number; do not append a unit.

Below are worked cases with known answers.
INSERT INTO measurements (sequence, reported_metric, test_result) VALUES
  ('KRFAFYRDSPR [FOXE3_Y108_E103K]', 'phosphorylation enrichment', 0.443),
  ('ETKRPYTVILI [SBDS_Y128]', 'phosphorylation enrichment', 0.582),
  ('HFGCVYRGTLL [MET_Y1093_H1094R]', 'phosphorylation enrichment', 0.884),
  ('FSMGCYEFSLG [HMGCL_Y198_I200F_YF]', 'phosphorylation enrichment', 0.733),
  ('TDISLYPSGGT [TENM4_Y399_V396I]', 'phosphorylation enrichment', 0.457),
  ('LSIQCYLRASD [HMGCS2_Y262_L266S]', 'phosphorylation enrichment', 1.99),
  ('YQKDVYDIPPS [NEDD9_Y177]', 'phosphorylation enrichment', 0.528),
  ('YFRDGYMPRQY [GSS_Y270]', 'phosphorylation enrichment', 3.74);

So what does the record say about phosphorylation enrichment for NNDLCYWVPEL [IARS1_Y434] ?
5.92

====

target: FGFR1 (UniProt P11362); test: phosphorylation enrichment, bacterial display (enrichment ratio); higher = better substrate or ligand; peptides without Tyr show the background
Recorded phosphorylation enrichment determines the group label, using lower range = under 0.5, middle range = from 0.5 up to 0.6, upper range = 0.6 and over

INSERT INTO results (sequence, answer_label) VALUES
  ('ERTIEYLEEVV [HADHA_Y239_A244V]', 'middle range'),
  ('GMAHNYRNRSQ [AASS_Y188_S191R]', 'lower range'),
  ('SVESPYGSVTF [NDRG2_Y47_T45S]', 'lower range'),
  ('GVTLLCYGRYN [ADGRD1_Y85_Y85C]', 'lower range');

Which bin, given its phosphorylation enrichment, does RQEEEYKRLSE [SFSWAP_Y133] occupy?
upper range

Which bin, given its phosphorylation enrichment, does RTIPDYTSFNT [EPHB2_Y912] occupy?
upper range

Which bin, given its phosphorylation enrichment, does ADDSFYTARSA [ZAP70_Y493_YF] occupy?
middle range

Which bin, given its phosphorylation enrichment, does STLEVYSCHPP [IL21R_Y317] occupy?
upper range

====

tested on: Fer (mouse); test: phosphorylation enrichment, bacterial display (enrichment ratio); higher = better substrate or ligand; peptides without Tyr show the background
Would you please tag the item Met when its phosphorylation enrichment is 0.7 or above, and Not met when it is below?

INSERT INTO assay_data (sequence, system, answer_label) VALUES
  ('GVTLLCYGRYN [ADGRD1_Y85_Y85C]', 'Fer (mouse)', 'Not met'),
  ('FSMGCYEFSLG [HMGCL_Y198_I200F_YF]', 'Fer (mouse)', 'Met'),
  ('QPGTDYKIYLY [FN1_Y1970]', 'Fer (mouse)', 'Met'),
  ('ERIELYELDKK [PMM2_Y145_F144L]', 'Fer (mouse)', 'Not met'),
  ('SVVVPYEPPEV [TP53_Y220]', 'Fer (mouse)', 'Not met'),
  ('SLAARYFNWVC [FLT4_Y1230_S1235C_YF]', 'Fer (mouse)', 'Not met'),
  ('EPSVDCCVVKI [CAD_Y735_Y735C]', 'Fer (mouse)', 'Not met'),
  ('SLDLSYYTTSS [EMD_Y181_P183T]', 'Fer (mouse)', 'Not met'),
  ('GFWPRYVKVGS [NOG_Y172_R167G]', 'Fer (mouse)', 'Not met'),
  ('TENAGYFFQVS', 'Fer (mouse)', 'Not met');

Quick check: does IVEFAYNDKAI [PUM3_Y259_YF] have phosphorylation enrichment greater than or equal to 0.7?
Not met

Quick check: does KGEDFYCVTYH [FHL1_Y149_C153Y] have phosphorylation enrichment greater than or equal to 0.7?
Met

====

phosphorylation enrichment values for the sequences below.
target: Jak2 (UniProt O60674); assay: phosphorylation enrichment, bacterial display (enrichment ratio); higher = better substrate or ligand; peptides without Tyr show the background
Sequence (O60674 whole entry, looked up): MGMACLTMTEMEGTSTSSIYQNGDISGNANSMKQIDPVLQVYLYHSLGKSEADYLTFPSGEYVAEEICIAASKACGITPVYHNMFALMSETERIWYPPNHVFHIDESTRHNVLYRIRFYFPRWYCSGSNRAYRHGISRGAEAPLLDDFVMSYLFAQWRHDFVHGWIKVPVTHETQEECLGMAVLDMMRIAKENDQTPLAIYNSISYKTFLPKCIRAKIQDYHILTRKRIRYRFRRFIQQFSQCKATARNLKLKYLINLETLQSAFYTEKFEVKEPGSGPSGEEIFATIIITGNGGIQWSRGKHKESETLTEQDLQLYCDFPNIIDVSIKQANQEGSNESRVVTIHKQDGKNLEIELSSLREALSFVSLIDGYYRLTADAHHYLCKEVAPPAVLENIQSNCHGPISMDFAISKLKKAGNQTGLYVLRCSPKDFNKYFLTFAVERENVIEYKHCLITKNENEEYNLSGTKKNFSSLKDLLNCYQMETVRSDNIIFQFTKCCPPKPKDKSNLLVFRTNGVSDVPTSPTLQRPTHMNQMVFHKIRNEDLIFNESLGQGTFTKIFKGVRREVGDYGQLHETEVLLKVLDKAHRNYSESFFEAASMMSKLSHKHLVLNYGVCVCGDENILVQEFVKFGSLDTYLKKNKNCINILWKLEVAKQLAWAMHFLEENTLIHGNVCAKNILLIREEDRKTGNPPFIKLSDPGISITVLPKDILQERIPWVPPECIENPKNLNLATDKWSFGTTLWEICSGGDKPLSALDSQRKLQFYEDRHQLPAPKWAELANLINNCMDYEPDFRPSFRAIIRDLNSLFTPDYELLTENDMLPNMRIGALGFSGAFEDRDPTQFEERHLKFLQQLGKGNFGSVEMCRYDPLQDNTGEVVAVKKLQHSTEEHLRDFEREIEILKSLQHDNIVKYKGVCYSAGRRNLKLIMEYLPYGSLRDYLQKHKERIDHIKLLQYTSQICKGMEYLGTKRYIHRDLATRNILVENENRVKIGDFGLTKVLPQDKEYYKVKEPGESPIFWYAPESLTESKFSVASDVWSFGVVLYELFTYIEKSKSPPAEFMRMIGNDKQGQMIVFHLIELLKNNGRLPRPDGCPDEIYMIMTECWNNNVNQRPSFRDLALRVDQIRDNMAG
The answer should be a number; do not append a unit.

INSERT INTO results (sequence, test_result) VALUES
  ('SPYAVYRFFTF [RPGRIP1_Y826]', 1.12);

So what does the record say about phosphorylation enrichment for RASGIYFVPKG [APBB1IP_Y340_YF] ?
2.91

So what does the record say about phosphorylation enrichment for FVSAAYVKKLD [SPTAN1_Y1020_P1017S] ?
0.403

So what does the record say about phosphorylation enrichment for LAIERYVVVCK [RHO_Y136] ?
1.9

So what does the record say about phosphorylation enrichment for SAEEDYIADAK [KCNT1_Y876_M877I] ?
1.2

So what does the record say about phosphorylation enrichment for VATRWYRSLEL [CDKL5_Y177_P180L] ?
0.576

So what does the record say about phosphorylation enrichment for DKATEYSQFMR [MAX_Y70_I71S_YF] ?
0.524

====

biological target: Fyn (UniProt P06241); assay: phosphorylation enrichment, bacterial display (enrichment ratio); higher = better substrate or ligand; peptides without Tyr show the background
Sequence (P06241 whole entry, looked up): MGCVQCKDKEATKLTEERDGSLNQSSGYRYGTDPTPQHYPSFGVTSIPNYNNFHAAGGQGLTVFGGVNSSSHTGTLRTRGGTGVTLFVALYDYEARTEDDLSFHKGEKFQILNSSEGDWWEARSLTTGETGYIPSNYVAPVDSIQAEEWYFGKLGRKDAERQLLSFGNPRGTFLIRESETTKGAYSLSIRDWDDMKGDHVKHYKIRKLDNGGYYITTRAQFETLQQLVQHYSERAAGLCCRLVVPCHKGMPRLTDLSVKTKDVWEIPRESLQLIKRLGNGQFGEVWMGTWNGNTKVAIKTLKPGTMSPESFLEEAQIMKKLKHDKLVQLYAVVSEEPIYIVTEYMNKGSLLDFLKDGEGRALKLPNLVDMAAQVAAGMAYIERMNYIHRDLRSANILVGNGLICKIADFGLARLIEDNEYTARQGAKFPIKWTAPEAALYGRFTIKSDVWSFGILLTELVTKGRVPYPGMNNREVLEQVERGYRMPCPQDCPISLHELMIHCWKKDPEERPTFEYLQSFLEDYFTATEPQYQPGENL
REPORTED METRIC: phosphorylation enrichment
The answer should be a number; do not append a unit.

Below are worked cases with known answers.
INSERT INTO results (sequence, reported_metric, test_result) VALUES
  ('AEARMYGVLPW [PLP1_Y207_D203E]', 'phosphorylation enrichment', 7.15),
  ('DFFDLYGGKKF [PTPN11_Y66_E69K_YF]', 'phosphorylation enrichment', 3.04);

So what does the record say about phosphorylation enrichment for PASLSYLSFEG [EXOSC3_Y143] ?
0.819

So what does the record say about phosphorylation enrichment for ALVLQYLRVPL [F9_Y371] ?
0.455

So what does the record say about phosphorylation enrichment for FTRNFYVWAVL [CYBA_Y88_R90W_YF] ?
0.427

So what does the record say about phosphorylation enrichment for RGEEPYTKKAL [TTC21B_Y160_K157E] ?
0.481

So what does the record say about phosphorylation enrichment for ALEKTYNTFRS [B4GALNT2_Y538_YF] ?
0.777

So what does the record say about phosphorylation enrichment for DRFANYIEKVR [DES_Y122] ?
0.434

So what does the record say about phosphorylation enrichment for HCFAAYFQQGD [GPI_Y351_R347C] ?
0.755

So what does the record say about phosphorylation enrichment for SWDKRYCEAGF [ITGA2B_Y197] ?
0.509

====

phosphorylation enrichment values for the sequences below.
molecular target: EPHB2 (UniProt P29323); test: phosphorylation enrichment, bacterial display (enrichment ratio); higher = better substrate or ligand; peptides without Tyr show the background
Sequence (P29323 whole entry, looked up): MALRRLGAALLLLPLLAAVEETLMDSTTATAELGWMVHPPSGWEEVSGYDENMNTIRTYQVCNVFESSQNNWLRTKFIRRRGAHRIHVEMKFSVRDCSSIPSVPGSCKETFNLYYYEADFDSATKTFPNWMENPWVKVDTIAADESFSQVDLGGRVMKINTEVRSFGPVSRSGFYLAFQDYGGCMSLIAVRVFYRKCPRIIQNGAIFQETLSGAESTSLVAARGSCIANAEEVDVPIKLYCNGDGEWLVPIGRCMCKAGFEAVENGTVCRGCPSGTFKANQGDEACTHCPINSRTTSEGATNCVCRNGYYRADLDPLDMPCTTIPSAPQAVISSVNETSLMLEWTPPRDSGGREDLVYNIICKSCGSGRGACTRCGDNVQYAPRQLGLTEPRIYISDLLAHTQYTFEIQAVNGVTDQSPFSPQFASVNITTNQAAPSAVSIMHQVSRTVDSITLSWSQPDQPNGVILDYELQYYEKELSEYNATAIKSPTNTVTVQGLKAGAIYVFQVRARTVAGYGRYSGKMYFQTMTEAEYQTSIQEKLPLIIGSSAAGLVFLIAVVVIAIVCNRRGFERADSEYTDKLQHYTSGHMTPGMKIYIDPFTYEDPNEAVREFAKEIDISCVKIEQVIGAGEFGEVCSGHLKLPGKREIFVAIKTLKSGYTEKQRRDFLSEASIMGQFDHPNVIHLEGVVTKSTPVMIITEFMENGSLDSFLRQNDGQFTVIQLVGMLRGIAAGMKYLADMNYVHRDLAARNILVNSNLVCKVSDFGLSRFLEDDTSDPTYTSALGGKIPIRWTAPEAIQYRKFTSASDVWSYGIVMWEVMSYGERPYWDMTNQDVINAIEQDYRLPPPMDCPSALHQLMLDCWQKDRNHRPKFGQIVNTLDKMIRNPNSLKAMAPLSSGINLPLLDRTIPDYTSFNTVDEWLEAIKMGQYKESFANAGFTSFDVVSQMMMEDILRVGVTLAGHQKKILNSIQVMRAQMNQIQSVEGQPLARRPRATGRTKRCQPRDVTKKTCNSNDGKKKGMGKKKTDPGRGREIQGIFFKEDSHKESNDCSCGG
The answer should be a number; do not append a unit.

INSERT INTO measurements (sequence, system, test_result) VALUES
  ('AVEDQYYRVDC [FHL1_Y207_C209R]', 'EPHB2 (UniProt P29323)', 0.701),
  ('KKFVPYYDLFM [IPO5_Y530_E525K]', 'EPHB2 (UniProt P29323)', 4.22),
  ('VLTSTYRGGGG [HBA1_Y141_K140T]', 'EPHB2 (UniProt P29323)', 0.376),
  ('ERNARYRTPKI [PTK2B_Y699]', 'EPHB2 (UniProt P29323)', 0.276);

Identify the measured phosphorylation enrichment of GIVTGYLVLKE [DNMT3B_Y588_A585V] for EPHB2 (UniProt P29323).
0.494

Identify the measured phosphorylation enrichment of GLDGRYLLRDS [SH2D1A_Y29_S28R] for EPHB2 (UniProt P29323).
0.448

Identify the measured phosphorylation enrichment of KAIMTYVPSFY [ACTN4_Y260_S262P] for EPHB2 (UniProt P29323).
0.63

Identify the measured phosphorylation enrichment of QITQVYGFYHE [PPP2CA_Y127_D131H] for EPHB2 (UniProt P29323).
0.877

Identify the measured phosphorylation enrichment of GAVGNYSRGLA [MGMT_Y158_G160R] for EPHB2 (UniProt P29323).
0.397

Identify the measured phosphorylation enrichment of PEIIAYQPFGK [PRKCG_Y529_YF] for EPHB2 (UniProt P29323).
0.645

Identify the measured phosphorylation enrichment of GKVFIYHGSSL [ITGA7_Y458] for EPHB2 (UniProt P29323).
0.614

Identify the measured phosphorylation enrichment of STLEVYSCHPP [IL21R_Y317] for EPHB2 (UniProt P29323).
1.34

Identify the measured phosphorylation enrichment of QGIIIYKAAYF [SLC25A4_Y187_R188K] for EPHB2 (UniProt P29323).
1.04

Identify the measured phosphorylation enrichment of CENNRYGMGTS [PDHA1_Y227] for EPHB2 (UniProt P29323).
0.606
